target: PDE-5A (Homo sapiens (Human)); experiment: Caliper Mobility-Shift PDE-5A Assay; assay type: biochemical; conditions: test compound; read-out: IC50 values for PDE-5A, PDE-5A
Value kind: pIC50
One number for each entry, as −log10 of the molar value.

The following compounds have reported results that may help.
>>> print(df.to_string())
                                   compound  value_kind  reported
0  COc1ccc(COc2nc(N3CC4CC4C3)ncc2C(=O)NCc2ccccc2)cc1Cl (stereo not drawn)       pIC50      9.76
1  COc1ccc(COc2nc(N3CCC4(CC3)CC4)ncc2C(=O)N[C@H]2CC[C@H](O)CC2)cc1Cl       pIC50      9.14
2  COc1ccc(COc2nc(N3CCC4(CC4)C3)ncc2C(=O)NCc2ccc(F)cc2)cc1Cl       pIC50      8.68
3  COc1ccc(COc2nc(N3CC4CC4C3)ncc2C(=O)NCc2ccc(F)cc2)cc1Cl (stereo not drawn)       pIC50     10.12
4  COc1ccc(COc2nc(N3CC4CC4C3)ncc2C(=O)NCc2ncccn2)cc1Cl (stereo not drawn)       pIC50     10.00

Please report pIC50 for every entry that follows.
1. COc1ccc(COc2nc(N3CCC4(CC3)CC4)ncc2C(=O)NCc2ccccn2)cc1Cl
2. COc1ccc(COc2nc(N3CCCC34CC4)ncc2C(=O)NCc2ccccc2)cc1Cl

## Output
1: 9.73; 2: 8.70

Please report pIC50 for every entry that follows.
1. COc1ccc(COc2nc(N3CCC4(CC4)C3)ncc2C(=O)NCc2ccccc2)cc1Cl
2. COc1ccc(COc2nc(N3CCC4(CC3)CC4)ncc2C(=O)NCc2ncccn2)cc1Cl
3. COc1ccc(COc2nc(N3CCC4(CC4)C3)ncc2C(=O)NCc2ncccn2)cc1Cl
4. COc1ccc(COc2nc(N3CC4CC4C3)ncc2C(=O)NCCN2CCOCC2)cc1Cl (stereo not drawn)
5. COc1ccc(COc2nc(N3C4CCC3COC4)ncc2C(=O)NCc2ccccc2)cc1Cl

## Output
[9.93, 9.32, 8.84, 9.67, 8.40]

Please report pIC50 for every entry that follows.
1. COc1ccc(COc2nc(N3CC4CC4C3)ncc2C(=O)NCc2cnc(C)cn2)cc1Cl (stereo not drawn)
2. COc1ccc(COc2nc(N3CCC4(CC3)CC4)ncc2C(=O)NCCN2CCOCC2)cc1Cl
3. COc1ccc(COc2nc(N3CCC4(CC4)C3)ncc2C(=O)N[C@H]2CC[C@H](O)CC2)cc1Cl
4. COc1ccc(COc2nc(N3CC4CC4C3)ncc2C(=O)NCc2ccccn2)cc1Cl (stereo not drawn)
5. COc1ccc(COc2nc(N3CC4CC4C3)ncc2C(=O)N[C@H]2CC[C@H](O)CC2)cc1Cl (stereo partly drawn)
6. COc1ccc(COc2nc(N3CCC4(CC3)CC4)ncc2C(=O)NCc2ccccc2)cc1Cl

## Output
1. 9.28
2. 9.03
3. 8.39
4. 10.55
5. 9.13
6. 8.94

Values from patent US8980904B2
